- System: 435261-313-R-J1-PDC tumor spheroid viability;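 also: spheroids exposed to compounds for 7 days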
- Assay Method Text: Anticancer human tumor 435261-313-R-J1-PDC patient-derived colon adenocarcinoma cell line growth inhibition [PI3K]
- Test Conditions: second compound 0.0316 µM; first compound 0.316 µM; hits give low values; spheroids with HUVEC and MSC
Quantity Measured: viability, T/C

Some solved cases for reference:
INSERT INTO results (molecule, study_system, quantity_measured, measured_value) VALUES
  ('Cn1ncc(Cl)c1-c1cc(C(=O)NC(CN)Cc2cccc(F)c2)sc1Cl (stereo unspecified) + CC(Nc1ncnc2nc[nH]c12)c1cc2cccc(Cl)c2c(=O)n1-c1ccccc1', '435261-313-R-J1-PDC tumor spheroid viability', 'viability, T/C', '75.1%'),
  ('CC(C)NCC(C(=O)N1CCN(c2ncnc3c2C(C)CC3O)CC1)c1ccc(Cl)cc1 (stereo unspecified) + COc1c(OCCCN2CCOCC2)ccc2c3n(c(=NC(=O)c4cnc(N)nc4)nc12)CCN3', '435261-313-R-J1-PDC tumor spheroid viability', 'viability, T/C', '40.3%'),
  ('CNC(=O)c1ccc(N2C(=S)N(c3ccc(C#N)c(C(F)(F)F)c3)C(=O)C2(C)C)cc1F + CC(Nc1ccc2c(c1)OCCn1cc(N3C(=O)OCC3C(F)F)nc1-2)C(N)=O', '435261-313-R-J1-PDC tumor spheroid viability', 'viability, T/C', '57.7%'),
  ('C#Cc1c(F)ccc2cc(O)cc(-c3ncc4c(N5CC6CCC(C5)N6)nc(OCC56CCCN5CC(F)C6)nc4c3F)c12 (stereo unspecified) + CC(Nc1ncnc2nc[nH]c12)c1cc2cccc(Cl)c2c(=O)n1-c1ccccc1', '435261-313-R-J1-PDC tumor spheroid viability', 'viability, T/C', '98.3%'),
  ('CCN1CCN(Cc2ccc(Nc3ncc(F)c(-c4cc(F)c5nc(C)n(C(C)C)c5c4)n3)nc2)CC1 + CC(Nc1ncnc2nc[nH]c12)c1cc2cccc(Cl)c2c(=O)n1-c1ccccc1', '435261-313-R-J1-PDC tumor spheroid viability', 'viability, T/C', '54.7%');

viability, T/C of CC(Cn1ccc(-c2ccc(C#N)c(Cl)c2)n1)NC(=O)c1cc(C(C)O)[nH]n1 (stereo unspecified) + CC(Nc1ncnc2nc[nH]c12)c1cc2cccc(Cl)c2c(=O)n1-c1ccccc1 , assay on 435261-313-R-J1-PDC tumor spheroid viability, is 107%

viability, T/C of C#Cc1c(F)ccc2cc(O)cc(-c3ncc4c(N5CC6CCC(C5)N6)nc(OCC56CCCN5CC(F)C6)nc4c3F)c12 (stereo unspecified) + CC(Nc1ccc2c(c1)OCCn1cc(N3C(=O)OCC3C(F)F)nc1-2)C(N)=O , assay on 435261-313-R-J1-PDC tumor spheroid viability, is 66.2%
